Biological target: T1, Oct6 DNA-binding domain (BD-Oct6) (Mus musculus (B6), UniProt P21952 317-416)
T1 sequence: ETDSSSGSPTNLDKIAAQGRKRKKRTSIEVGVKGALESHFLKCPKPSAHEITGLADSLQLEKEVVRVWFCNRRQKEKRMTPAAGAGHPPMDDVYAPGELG
Test: EMSA; 10% glycerol, 20 mM HEPES pH 7.8, 45 mM KCl, 10 mM NaCl, 1 mM EDTA, 1 mM DTT, 0.2 ug/uL BSA, 0.1% NP-40, 50 ng poly-dIdC; 20 ng each GST protein; room temperature 30 min (heterodimers 4 C); 6% PAGE 0.25x TBE
Conditions: protein: recombinant; tags: GST (N-terminal, pGEX-6P-1); label: 32P-dCTP fill-in of the 5' (dG)5 overhangs of both strands (Methods; control probes are given with GGG)
VALUE KIND: binding result

- BINDER: "42 (dsDNA) DNA 1: GGGGGGCTTCAGCATTGTGAAATTGAATCATTGCCCCCC DNA 2: GGGGGGCAATGATTCAATTTCACAATGCTGAAGCCCCCC"
  OBS VALUE: "no binding"
- BINDER: "104 (dsDNA) DNA 1: GGGGGCACAATTTTTATAATATATAATTGTTTCATCAACCCCC DNA 2: GGGGGTTGATGAAACAATTATATATTATAAAAATTGTGCCCCC"
  OBS VALUE: "binds"
- BINDER: "122 (dsDNA) DNA 1: GGGGGGAAAAGGATTTGTACTTAAATAAGCACCTGGCCCCCC DNA 2: GGGGGGCCAGGTGCTTATTTAAGTACAAATCCTTTTCCCCCC"
  OBS VALUE: "binds"
- BINDER: "115 (dsDNA) DNA 1: GGGGGCTGGCCAGACAATGACGATATTTTTTTCCTTCACCCCCC DNA 2: GGGGGGTGAAGGAAAAAAATATCGTCATTGTCTGGCCAGCCCCC"
  OBS VALUE: "no binding"
- BINDER: "65 (dsDNA) DNA 1: GGGGGGTACTTGGTGATAATTTCATTGTCCACATGCCCCCC DNA 2: GGGGGGCATGTGGACAATGAAATTATCACCAAGTACCCCCC"
  OBS VALUE: "binds"
- BINDER: "105 (dsDNA) DNA 1: GGGGGATTTTTTAAAAAATTAGACTACCACAAATCAACTGTCCCCC DNA 2: GGGGGACAGTTGATTTGTGGTAGTCTAATTTTTTAAAAAATCCCCC"
  OBS VALUE: "binds"
- BINDER: "83 (dsDNA) DNA 1: GGGGGGTCCAAGTTTTGTGACCCTTTAATACAGTTAGATCCCCCC DNA 2: GGGGGGATCTAACTGTATTAAAGGGTCACAAAACTTGGACCCCCC"
  OBS VALUE: "binds"
- BINDER: "54 (dsDNA) DNA 1: GGGGGAGGTGTTAAGTGTGGAGTCGTGAGAACAACAATCCAGATAGCCCCC DNA 2: GGGGGCTATCTGGATTGTTGTTCTCACGACTCCACACTTAACACCTCCCCC"
  OBS VALUE: "binds"
- BINDER: "59 (dsDNA) DNA 1: GGGGGAGCTTTTAACAATTTAATTTTGTCTCTACCTCCCCC DNA 2: GGGGGAGGTAGAGACAAAATTAAATTGTTAAAAGCTCCCCC"
  OBS VALUE: "binds"
